# ASSAY EXPLANATION: Kinetic assay of purified DAOCS with penicillin G (standard penicillin G assay, HPLC of cephalosporin G)
# Type: biochemical
# DETAILS: for penicillin G; 20 μg purified DAOCS, 1 mM α-ketoglutarate, 30° C.
OBSERVED PROPERTY: kcat (S^−1)
Respond with the bare value in S^−1.

Record excerpt, results attached:
[ask] # input molecule: YH2: mutated penicillin expandase (DAOCS) with substitution H244R (protein, UniProt P18548 1-311, looked up, variant H244R) Deacetoxycephalosporin C …: MDTTVPTFSLAELQQGLHQDEFRRCLRDKGLFYLTDCGLTDTELKSAKDLVIDFFEHGSEAEKRAVTSPVPTMRRGFTGLESESTAQITNTGSYSDYSMCYSMGTADNLFPSGDFERIWTQYFDRQYTASRAVAREVLRATGTEPDGGVEAFLDCEPLLRFRYFPQVPEHRSAEEQPLRMAPHYDLSMVTLIQQTPCANGFVSLQAEVGGAFTDLPYRPDAVLVFCGAIATLVTGGQVKAPRHRVAAPRRDQIAGSSRTSSVFFLRPNADFTFSVPLARECGFDVSLDGETATFQDWIGGNYVNIRRTSKA ; wanted: its kcat
[reply] 0.0672

[ask] Now the same for YS67: mutated penicillin expandase (DAOCS) with substitutions V275I and I305M (protein, UniProt P18548 1-311, looked up, variant V275I I305M) Deacetoxycephalosporin C …: MDTTVPTFSLAELQQGLHQDEFRRCLRDKGLFYLTDCGLTDTELKSAKDLVIDFFEHGSEAEKRAVTSPVPTMRRGFTGLESESTAQITNTGSYSDYSMCYSMGTADNLFPSGDFERIWTQYFDRQYTASRAVAREVLRATGTEPDGGVEAFLDCEPLLRFRYFPQVPEHRSAEEQPLRMAPHYDLSMVTLIQQTPCANGFVSLQAEVGGAFTDLPYRPDAVLVFCGAIATLVTGGQVKAPRHHVAAPRRDQIAGSSRTSSVFFLRPNADFTFSIPLARECGFDVSLDGETATFQDWIGGNYVNMRRTSKA
[reply] 0.1458

[ask] Same for YS87: mutated penicillin expandase (DAOCS) with substitution T91A (protein, UniProt P18548 1-311, looked up, variant T91A) Deacetoxycephalosporin C …: MDTTVPTFSLAELQQGLHQDEFRRCLRDKGLFYLTDCGLTDTELKSAKDLVIDFFEHGSEAEKRAVTSPVPTMRRGFTGLESESTAQITNAGSYSDYSMCYSMGTADNLFPSGDFERIWTQYFDRQYTASRAVAREVLRATGTEPDGGVEAFLDCEPLLRFRYFPQVPEHRSAEEQPLRMAPHYDLSMVTLIQQTPCANGFVSLQAEVGGAFTDLPYRPDAVLVFCGAIATLVTGGQVKAPRHHVAAPRRDQIAGSSRTSSVFFLRPNADFTFSVPLARECGFDVSLDGETATFQDWIGGNYVNIRRTSKA
[reply] 0.0522

# input for lookup
[ask] Which kcat value belongs to SC59: DNA-shuffled combined DAOCS mutant with C155Y, Y184H, V275I and C281Y (protein, UniProt P18548 1-311, looked up, variant C155Y Y184H V275I C281Y) Deacetoxycephalosporin C …: MDTTVPTFSLAELQQGLHQDEFRRCLRDKGLFYLTDCGLTDTELKSAKDLVIDFFEHGSEAEKRAVTSPVPTMRRGFTGLESESTAQITNTGSYSDYSMCYSMGTADNLFPSGDFERIWTQYFDRQYTASRAVAREVLRATGTEPDGGVEAFLDYEPLLRFRYFPQVPEHRSAEEQPLRMAPHHDLSMVTLIQQTPCANGFVSLQAEVGGAFTDLPYRPDAVLVFCGAIATLVTGGQVKAPRHHVAAPRRDQIAGSSRTSSVFFLRPNADFTFSIPLAREYGFDVSLDGETATFQDWIGGNYVNIRRTSKA ?
[reply] 0.1398
